# system: human glutamine synthetase (hGS) (Homo sapiens)
# Construct: gene GLUL
# Sequence (P15104 2-373): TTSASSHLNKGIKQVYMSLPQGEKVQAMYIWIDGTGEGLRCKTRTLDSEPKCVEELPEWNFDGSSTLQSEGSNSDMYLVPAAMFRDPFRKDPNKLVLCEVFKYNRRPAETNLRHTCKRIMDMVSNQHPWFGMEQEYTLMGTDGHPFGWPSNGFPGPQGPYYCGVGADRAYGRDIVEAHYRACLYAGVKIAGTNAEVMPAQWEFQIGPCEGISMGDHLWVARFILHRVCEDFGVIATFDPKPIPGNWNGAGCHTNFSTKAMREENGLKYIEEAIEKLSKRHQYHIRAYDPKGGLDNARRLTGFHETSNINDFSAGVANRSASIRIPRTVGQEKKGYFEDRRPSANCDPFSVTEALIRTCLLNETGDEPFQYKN
# measurement-description: microtiter phosphate-release GS activity assay, Lineweaver-Burk and secondary plot; IC50 […]
# Assay type: biochemical
pKi: −log10 of the molar value.
readout: pKi

Asked: Name the reported pKi value associated with the compound CP(=O)(O)CCC(N)C(=O)O (stereo not shown) [Glufosinate]
Given back: ~4.71
